Source of measurements: PubChem BioAssay (NCI)

test system: SK-MEL-2 melanoma; assay: NCI-60 one-dose screen, 48 h; settings: 10 µM unless noted
This is part of a sample that, as a whole, favours compounds with a hit. Of some 83,000 tested, about 20% had one in any assay. Active and inactive are the calls of the source. The calls were made as follows: active = growth percent below 10; inactive = the rest.
Pick one and only one: 1 for active, -1 for inactive

Completed entries (count: 8):
compound=c1ccc2cc(C[n+]3ccn(CCCCCCn4cc[n+](Cc5ccc6ccccc6c5)c4)c3)ccc2c1 category=-1
compound=CCc1ccc2nc(NC(=O)Cc3csc(NC(=O)c4ccco4)n3)sc2c1 category=-1
compound="c1cc2nc(-c3cn[nH]c3)c3c(c2cc1-c1cn[nH]c1)C1CCC3C1 (stereo not given)" category=-1
compound=COc1ccc(-c2nc3sc(-c4ccc(Cl)cc4)cn3n2)cc1 category=-1
compound=Cc1nc2ccccc2n1CC1C(=O)NC(=O)NC1=O category=-1
compound=O=C(Cc1ccc(F)c(Cl)c1)Nc1cc(C2(C(F)(F)F)CC2)nn1CC1CCCCC1 category=1
compound=COc1ccc(C(=O)C[C@]2(O)C(=O)Nc3c(Cl)ccc(Cl)c32)cc1 category=-1
compound=Nc1nc2ccccc2c2c(=O)c3cc(F)ccc3sc12 category=-1

Hi team, can someone confirm the assay call for O=c1c2cc(C(F)(F)F)ccc2sc2c(NCCCNCCO)nc3ccccc3c12 ?
-1

Can you look up the reported call for N#Cc1cccc(NC(=O)c2cc(-c3ccc(F)cc3F)ccc2O)c1 for me?
1

###

Reported growth values for a set of compounds
system: UACC-257 melanoma; experiment: NCI-60 one-dose screen, 48 h (100 = growth as untreated, 0 = no growth, -100 = all killed); details: 10 µM unless noted
This is part of a sample that, as a whole, favours compounds with a hit. Of some 83,000 tested, about 20% had one in any assay.
Write down the numeric answer in % and omit the unit.

query_smiles=O=CN(SSN(C=O)C1CCCCC1)C1CCCCC1 unit_abbrev=% result=124
query_smiles=CCC(=O)Nc1ccc(-c2nc(-c3cccc(OC)c3)c(-c3ccnc(Br)c3)[nH]2)cc1 unit_abbrev=% result=74.4
query_smiles=O=C(N=c1oc2ccccc2cc1-c1cc2ccccc2[nH]1)Nc1ccc(Cl)cc1 unit_abbrev=% result=108
query_smiles=CN1CCN(Cc2ccc(NC(=O)c3cncc(C#Cc4cnccc4C#N)c3)cc2C(F)(F)F)CC1 unit_abbrev=% result=41.1

Please report growth with UACC-257 melanoma for item O=C(Oc1cccc2ccccc12)Oc1cccc2ccccc12 .
127

###

# growth values compiled below
Tested on: MDA-MB-435 melanoma
Assay: NCI-60 one-dose screen, 48 h (100 = growth as untreated, 0 = no growth, -100 = all killed)
Settings: 10 µM unless noted
Procedure: Growth inhibition of the MDA-MB-435 human Melanoma tumor cell line is measured as a screen for anti-cancer activity. Cells are grown in 96 well plates and exposed to the test compound for 48 hours. Compounds are tested at a single concentration, which is 10^-5 M for most compounds. The reported endpoint is percent growth (GI% or GIPRCNT), where numbers from 0 - 100% represent growth inhibition, and numbers from -100% - 0 represent cell death. […]
About 83,000 compounds went through this panel and 20% of them were active in at least one assay; those are over-represented in the sample as a whole.
Numeric only. Scale: %

Below are worked cases with known answers.
compound=Cc1nc(/N=C(\N)NC(=O)Nc2cccc(Cl)c2)sc1C result=-13.5
compound=CCOc1c(B(O)O)cccc1-c1nc2ccc3[nH]ncc3c2c2c1CCCC2 result=90.1
compound="O=C(CCOCCNC(=O)COc1ccc2c(c1)OCC(c1ccc(F)cc1)C2=O)NCCCC(O)(P(=O)(O)O)P(=O)(O)O (stereo not given)" result=102

Retrieve growth measured for C=CCc1cc(C)ccc1NC(C(=O)NCC(=O)OC)c1ccccc1 (stereo not given) and print it.
101

Given the compound O=C1NC(=O)C(c2ccccc2)(c2ccccc2)N1Cc1cn(-c2c3ccccc3nc3ccccc23)nn1 , write its reported growth.
94.4

###

system: HS 578T breast; test: NCI-60 one-dose screen, 48 h (100 = growth as untreated, 0 = no growth, -100 = all killed); conditions: 10 µM unless noted
The panel holds about 83,000 compounds, 20% with a hit somewhere; the sample as a whole holds those more often.
// returns condition not met unless growth is strictly below 70%, in which case condition met

Below, 5 compounds whose answers are already recorded.
compound=COc1cc2cc(Oc3ccc(NC(=O)Nc4ccc(F)c(C(F)(F)F)c4)cc3)c(C)nc2cc1OCCN1CCOCC1 assayed_system="HS 578T breast" category="condition met"
compound=Cc1cc(Cl)ccc1NS(=O)(=O)c1ccc(-c2cnc(C3CC3)o2)cc1 assayed_system="HS 578T breast" category="condition met"
compound=COc1cc(C(=O)N/N=C/c2cc3cc(OCc4ccccc4)ccc3nc2OC)cc(OC)c1OC assayed_system="HS 578T breast" category="condition met"
compound="COc1cc(OCc2cccc(-c3ccc(C(O)c4nccs4)cc3)c2C)cc(OC)c1CNCCNC(C)=O (centres undefined)" assayed_system="HS 578T breast" category="condition not met"
compound=COc1ccc2c(c1OC)C(=O)O[C@H]2[C@H]1c2c(cc3c(c2OC)OCO3)CCN1C assayed_system="HS 578T breast" category="condition not met"

Threshold test, growth < 70%: C=CCNc1ccc2c3c(cccc13)C(=O)N(N1C(=O)c3cccc4cccc(c34)C1=O)C2=O
condition not met

###

molecules and their reported growth
system: A549/ATCC NSCLC; experiment: NCI-60 one-dose screen, 48 h (100 = growth as untreated, 0 = no growth, -100 = all killed); conditions: 10 µM unless noted
Compounds without any hit were thinned out: in the full panel of roughly 83,000, 20% have a hit.
The figure you give is taken to be in %; do not add the unit.

// known answers, use as guide
molecule=COc1cc(/C=C/C(=O)/C=C/c2cc(OC)c3c(c2OC)OCO3)c(OC)c2c1OCO2 readout_label=growth unit_abbrev=% result=55.1
molecule=Cc1[nH]c(C(=O)Nc2ccc(C(=O)N3CCNCC3)cc2OC(C)C)c(Cl)c1Cl readout_label=growth unit_abbrev=% result=70.2
molecule=CC/C=C\C[C@@H]1C/C=C2/C(=O)C=C[C@H]2C/C=C\CCCC(=O)O1 readout_label=growth unit_abbrev=% result=-26.7
molecule=O=C(N=c1oc2ccccc2cc1-c1cc2ccccc2[nH]1)Nc1ccc(Cl)cc1 readout_label=growth unit_abbrev=% result=96.1

Fill in growth for Cc1cc(=O)oc2cc(OC(=O)N3CCN(C)CC3)ccc12 tested with A549/ATCC NSCLC.
103

Provide measured growth on A549/ATCC NSCLC for Cc1c(C(=O)/C=C/Nc2c(Cl)cc(S(N)(=O)=O)cc2Cl)sc2nc3ccccc3n12 please.
103

Name the value of growth reported for CC(=O)CC(c1cccs1)c1c(-c2ccccc2)[nH]c2ccccc12 (centres undefined) when tested on A549/ATCC NSCLC.
91.3

Provide measured growth on A549/ATCC NSCLC for CCOC(=O)C1=C(N)Oc2c(sc3c(C)cccc23)C1c1ccc(Cl)cc1 (centres undefined) please.
46.2

Look up A549/ATCC NSCLC data: growth of COc1cc(C(=O)/C=C/c2ccc(OCCCCCC[P+](c3ccccc3)(c3ccccc3)c3ccccc3)cc2)cc(OC)c1OC , then report it.
-1.89

###

This listing pairs molecules with measured growth.
tested on: IGROV1 ovarian; test: NCI-60 one-dose screen, 48 h (100 = growth as untreated, 0 = no growth, -100 = all killed); settings: 10 µM unless noted
About 83,000 compounds went through this panel and 20% of them were active in at least one assay; those are over-represented in the sample as a whole.
Numbers only here, please. The scale is %.

molecule=O=C1NC(=O)C(c2ccccc2)(c2ccccc2)N1Cc1cn(-c2c3ccccc3nc3ccccc23)nn1 result=83.3
molecule=C=C1C(=O)O[C@H]2[C@H]1CC/C(COC(=O)CCC(=O)NCCOCCOCC(=O)Nc1ccc(OC)c(C(N)=O)c1O)=C\CC[C@@]1(C)O[C@@H]21 result=59.2
molecule=C=CCNc1ccc2c3c(cccc13)C(=O)N(N1C(=O)c3cccc4cccc(c34)C1=O)C2=O result=103
molecule=O=C(S)CNC(=O)c1ccccc1 result=105

Tell me growth reported for COc1ccc(-c2c(C(=O)NS(C)(=O)=O)n(Cc3cccc(C(F)(F)F)c3)c3ccccc23)cc1
90.7

Look up and report measured growth for this entry: COc1cc(/C=C2\C(=O)Nc3ccc(Br)cc32)cc(OC)c1OC
43

For the molecule COc1cccc2nc3n(c12)C(c1c(F)cccc1F)SC3 (stereo not given) , report growth.
7.38

###

tested on: NCI-H522 lung; assay: NCI-60 one-dose screen, 48 h; conditions: 10 µM unless noted
The panel holds about 83,000 compounds, 20% with a hit somewhere; the sample as a whole holds those more often. Active and inactive are the calls of the source. The calls were made as follows: active = growth percent below 10; inactive = the rest.
Answer with one of the outcomes True = active, False = inactive

Worked set:
compound=COc1cccc(-c2nn(-c3ccccc3)cc2-c2ccnc(N3CCOCC3)c2)c1 category=False
compound=COc1ccc2c(c1)nc(NNC(=O)c1cnccn1)c1cccn12 category=True
compound=O=c1ccn(Cc2cn(-c3c4ccccc4nc4ccccc34)nn2)c(=O)[nH]1 category=True

For CN1C(=O)N(C)C2Nn3c(s/c(=C\c4ccccc4)c3=O)=NC21 (stereo unspecified) , what call appears in the results of this test?
False

Which outcome was entered for the compound C#Cc1cccc(NC(=O)Nc2ccccc2NC(=O)CCl)c1 in this test?
True

// param item: COc1ccc(CN2c3ccccc3Sc3ccccc32)c(F)c1 ; yields the recorded call
True

Hi, do you know how Cc1cc(=O)oc2cc(OC(=O)N3CCN(C)CC3)ccc12 came out in this test?
False

# lookup: test call for COc1cc(CCC[P+](c2ccccc2)(c2ccccc2)c2ccccc2)c(OC)c2c1OCO2
True
